// data source = the supplement of paper PMC11316812

// reported percentage of EdU-negative per item
System: hTERT-HMEC
RUN_DESCRIPTION: percentage of EdU-negative (G0-arrested) nuclei per well, 72 h; higher = more G0 arrest;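 note: secreted proteins added to cultured cells, EdU pulse at the end, nuclei found by Hoechst imaging, EdU status from nuclear versus surrounding ring intensity ratio, PBS as neutral control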
DETAILS: protein concentration 0.0225 µM; reference: sequence is the full UniProt precursor, the tested protein was the secreted form or ectodomain
Answer with a number only, understood to be in %.

A selection of reference data follows.
# SEQ, percentage of EdU-negative (%)
rows = [
    ("MAWPLCTLLLLLATQAVALAWSPQEEDRIIEGGIYDADLNDERVQRALHFVISEYNKATEDEYYRRLLRVLRAREQIVGGVNYFFDIEVGRTICTKSQPNLDTCAFHEQPELQKKQLCSFQIYEVPWEDRMSLVNSRCQEA", 4.46),
    ("MARRSRHRLLLLLLRYLVVALGYHKAYGFSAPKDQQVVTAVEYQEAILACKTPKKTVSSRLEWKKLGRSVSFVYYQQTLQGDFKNRAEMIDFNIRIKNVTRSDAGKYRCEVSAPSEQGQNLEEDTVTLEVLVAPAVPSCEVPSSALSGTVVELRCQDKEGNPAPEYTWFKDGIRLLENPRLGSQSTNSSYTMNTKTGTLQFNTVSKLDTGEYSCEARNSVGYRRCPGKRMQVDDLNISGIIAAVVVVALVISVCGLGVCYAQRKGYFSKETSFQKSNSSSKATTMSENDFKHTKSFII", 5.13),
    ("MCGPDDRCPARWPGPGRAVKCGKGLAAARPGRVERGGAQRGGAGLELHPLLGGRTWRAARDADGCEALGTVAVPFDDDDKIVGGYTCEENSLPYQVSLNSGSHFCGGSLISEQWVVSAAHCYKTRIQVRLGEHNIKVLEGNEQFINAAKIIRHPKYNRDTLDNDIMLIKLSSPAVINARVSTISLPTTPPAAGTECLISGWGNTLSFGADYPDELKCLDAPVLTQAECKASYPGKITNSMFCVGFLEGGKDSCQRDSGGPVVCNGQLQGVVSWGHGCAWKNRPGVYTKVYNYVDWIKDTIAANS", 5.21),
]

Query :: So what percentage of EdU-negative did "MVATKTFALLLLSLFLAVGLGEKKEGHFSALPSLPVGSHAKVSSPQPRGPRYAEGTFISDYSIAMDKIHQQDFVNWLLAQKGKKNDWKHNITQREARALELASQANRKEEEAVEPQSSPAKNPSDEDLLRDLLIQELLACLLDQTNLCRLRSR" get with hTERT-HMEC?
Result :: 4.89

Query :: Okay, and "MEALPLLAATTPDHGRHRRLLLLPLLLFLLPAGAVQGWETEERPRTREEECHFYAGGQVYPGEASRVSVADHSLHLSKAKISKPAPYWEGTAVIDGEFKELKLTDYRGKYLVFFFYPLDFTFVCPTEIIAFGDRLEEFRSINTEVVACSVDSQFTHLAWINTPRRQGGLGPIRIPLLSDLTHQISKDYGVYLEDSGHTLRGLFIIDDKGILRQITLNDLPVGRSVDETLRLVQAFQYTDKHGEVCPAGWKPGSETIIPDPAGKLKYFDKLN" ?
Result :: 5.57

Query :: Could you do the same for "MLGVLELLLLGAAWLAGPARGQNETEPIVLEGKCLVVCDSNPTSDPTGTALGISVRSGSAKVAFSAIRSTNHEPSEMSNRTMIIYFDQVLVNIGNNFDSERSTFIAPRKGIYSFNFHVVKVYNRQTIQVSLMLNGWPVISAFAGDQDVTREAASNGVLIQMEKGDRAYLKLERGNLMGGWKYSTFSGFLVFPL" , please?
Result :: 5.16

Query :: Repeat for the following sequence: "MDSYLLMWGLLTFIMVPGCQAELCDDDPPEIPHATFKAMAYKEGTMLNCECKRGFRRIKSGSLYMLCTGNSSHSSWDNQCQCTSSATRNTTKQVTPQPEEQKERKTTEMQSPMQPVDQASLPGHCREPPPWENEATERIYHFVVGQMVYYQCVQGYRALHRGPAESVCKMTHGKTRWTQPQLICTGEMETSQFPGEEKPQASPEGRPESETSCLVTTTDFQIQTEMAATMETSIFTTEYQVAVAGCVFLLISVLLLSGLTWQRRQRKSRRTI"
Result :: 4.53

Query :: Then what about the sequence MRWCLLLIWAQGLRQAPLASGMMTGTIETTGNISAEKGGSIILQCHLSSTTAQVTQVNWEQQDQLLAICNADLGWHISPSFKDRVAPGPGLGLTLQSLTVNDTGEYFCIYHTYPDGTYTGRIFLEVLESSVAEHGARFQIPLLGAMAATLVVICTAVIVVVALTRKKKALRIHSVEGDLRRKSAGQEEWSPSAPSPPGSCVQAEAAPAGLCGEQRGEDCAELHDYFNVLSYRSLGNCSFFTETG [Q495A1] ?
Result :: 4.33

Query :: Also, "MPRCRWLSLILLTIPLALVARKDPKKNETGVLRKLKPVNASNANVKQCLWFAMQEYNKESEDKYVFLVVKTLQAQLQVTNLLEYLIDVEIARSDCRKPLSTNEICAIQENSKLKRKLSCSFLVGALPWNGEFTVMEKKCEDA" please.
Result :: 5.21

Query :: What do we get for MKLGLLCALLSLLAGHGWADTRAIGAEECRPNSQPWQAGLFHLTRLFCGATLISDRWLLTAAHCRKPYLWVRLGEHHLWKWEGPEQLFRVTDFFPHPGFNKDLSANDHNDDIMLIRLPRQARLSPAVQPLNLSQTCVSPGMQCLISGWGAVSSPKALFPVTLQCANISILENKLCHWAYPGHISDSMLCAGLWEGGRGSCQGDSGGPLVCNGTLAGVVSGGAEPCSRPRRPAVYTSVCHYLDWIQEIMEN [Q9UKQ9] ?
Result :: 5.25

Query :: Okay, and "MSRGLQLLLLSCAYSLAPATPEVKVACSEDVDLPCTAPWDPQVPYTVSWVKLLEGGEERMETPQEDHLRGQHYHQKGQNGSFDAPNERPYSLKIRNTTSCNSGTYRCTLQDPDGQRNLSGKVILRVTGCPAQRKEETFKKYRAEIVLLLALVIFYLTLIIFTCKFARLQSIFPDFSKAGMERAFLPVTSPNKHLGLVTPHKTELV" ?
Result :: 4.68

Query :: Query MKPLLVVFVFLFLWDPVLAGINSLSSEMHKKCYKNGICRLECYESEMLVAYCMFQLECCVKGNPAP [Q4QY38] next
Result :: 4.56

Query :: What about this sequence? "MKVSVAALSCLMLVTALGSQARVTKDAETEFMMSKLPLENPVLLDRFHATSADCCISYTPRSIPCSLLESYFETNSECSKPGVIFLTKKGRRFCANPSDKQVQVCMRMLKLDTRIKTRKN"
Result :: 4.81

---

Test system: MCF7
RUN_DESCRIPTION: percentage of EdU-negative (G0-arrested) nuclei per well, 72 h; higher = more G0 arrest
DETAILS: protein concentration 0.3125 µM; reference: sequence is the full UniProt precursor, the tested protein was the secreted form or ectodomain
// label = Satisfied if percentage of EdU-negative is not less than 30%, otherwise Not satisfied

# SEQ, CLASSIFICATION
measured = [
    ("MLAPGSSPGQRGRLALQWRQVSWITCWIALYAVEALPTCPFSCKCDSRSLEVDCSGLGLTTVPPDVPAATRTLLLLNNKLSALPSWAFANLSSLQRLDLSNNFLDRLPRSIFGDLTNLTELQLRNNSIRTLDRDLLRHSPLLRHLDLSINGLAQLPPGLFDGLLALRSLSLRSNRLQNLDRLTFEPLANLQLLQVGDNPWECDCNLREFKHWMEWFSYRGGRLDQLACTLPKELRGKDMRMVPMEMFNYCSQLEDENSSAGLDIPGPPCTKASPEPAKPKPGAEPEPEPSTACPQKQRHRPASVRRAMGTVIIAGVVCGVVCIMMVVAAAYGCIYASLMAKYHRELKKRQPLMGDPEGEHEDQKQISSVA [Q8N967]", "Not satisfied"),
    ("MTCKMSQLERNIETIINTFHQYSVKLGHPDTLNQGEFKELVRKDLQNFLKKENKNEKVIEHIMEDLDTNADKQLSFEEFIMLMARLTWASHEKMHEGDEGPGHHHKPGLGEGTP", "Not satisfied"),
    ("MLLLGAVLLLLALPGHDQETTTQGPGVLLPLPKGACTGWMAGIPGHPGHNGAPGRDGRDGTPGEKGEKGDPGLIGPKGDIGETGVPGAEGPRGFPGIQGRKGEPGEGAYVYRSAFSVGLETYVTIPNMPIRFTKIFYNQQNHYDGSTGKFHCNIPGLYYFAYHITVYMKDVKVSLFKKDKAMLFTYDQYQENNVDQASGSVLLHLEVGDQVWLQVYGEGERNGLYADNDNDSTFTGFLLYHDTN", "Not satisfied"),
]

Query :: Please tell me: is the sequence "MALSFSLLMAVLVLSYKSICSLGCDLPQTHSLGNRRALILLAQMGRISPFSCLKDRHDFGFPQEEFDGNQFQKAQAISVLHEMIQQTFNLFSTKDSSATWEQSLLEKFSTELNQQLNDLEACVIQEVGVEETPLMNVDSILAVKKYFQRITLYLTEKKYSPCAWEVVRAEIMRSFSLSKIFQERLRRKE" at or over 30% in terms of percentage of EdU-negative?
Result :: Satisfied

Query :: Another: "MRRMWATQGLAVALALSVLPGSRALRPGDCEVCISYLGRFYQDLKDRDVTFSPATIENELIKFCREARGKENRLCYYIGATDDAATKIINEVSKPLAHHIPVEKICEKLKKKDSQICELKYDKQIDLSTVDLKKLRVKELKKILDDWGETCKGCAEKSDYIRKINELMPKYAPKAASARTDL"
Result :: Not satisfied

Query :: For "MTSSLLLAFLLLAPTTVATPRAGGQCPACGGPTLELESQRELLLDLAKRSILDKLHLTQRPTLNRPVSRAALRTALQHLHGVPQGALLEDNREQECEIISFAETGLSTINQTRLDFHFSSDRTAGDREVQQASLMFFVQLPSNTTWTLKVRVLVLGPHNTNLTLATQYLLEVDASGWHQLPLGPEAQAACSQGHLTLELVLEGQVAQSSVILGGAAHRPFVAARVRVGGKHQIHRRGIDCQGGSRMCCRQEFFVDFREIGWHDWIIQPEGYAMNFCIGQCPLHIAGMPGIAASFHTAVLNLLKANTAAGTTGGGSCCVPTARRPLSLLYYDRDSNIVKTDIPDMVVEACGCS" then?
Result :: Not satisfied
